- TARGET_UNDER_TEST: SARS-CoV-2 3CLpro (Severe acute respiratory syndrome coronavirus 2)
- EXPERIMENT_NOTES: biochemical
- Assay type: biochemical
- Set-up: unit not given here
- CONDITION_LABEL: sheet LOPAC_screen_w_protease; primary screen with protease, 5 µM; mean of two replicates
# maps each entry to its mean

{"columns": ["MOLECULE", "mean"],
 "data": [
  ["Cn1c(=O)c2[nH]c(C3CCCC3)nc2n(C)c1=O [8-Cyclopentyl-1,3-dimethylxanthine]", 0.2262],
  ["Cl.NCCCCC(=O)O [5-Aminovaleric acid hydrochloride]", 0.3592],
  ["C[C@]12CCC(=O)C(O)=C1CC[C@@H]1[C@@H]2CC[C@]2(C)C(=O)CC[C@@H]12 [4-Androsten-4-ol-3,17-dione]", 0.2033],
  ["CC(C)=CCC/C(C)=C/CC/C(C)=C/CSc1ccccc1C(=O)O [Farnesylthiosalicylic acid]", 0.3894],
  ["CC(=O)OC(C)C[N+](C)(C)C.[Cl-] (stereo not drawn) [Acetyl-beta-methylcholine chloride]", 0.2718],
  ["COC1(C2=NCCN2)COc2ccccc2O1.Cl (centres unmarked) [RX 821002 hydrochloride]", 0.0583],
  ["COc1ccc(CCNC[C@H](O)c2ccc(O)cc2)cc1OC [R(-)-Denopamine]", -0.5647],
  ["Cc1ccc(/C(=C\\CN2CCCC2)c2ccccn2)cc1.Cl [Triprolidine hydrochloride]", 0.01953]
]}

Exam item: Lab note: record mean of C=CC(N)CCC(=O)O (racemic) [(±)-gamma-Vinyl GABA] tested on SARS-CoV-2 3CLpro (Severe acute respiratory syndrome coronavirus 2).
Marked response: -0.2228

Exam item: Please report the measured mean for CC(=O)OCC1=C(C(=O)[O-])N2C(=O)[C@@H](NC(=O)CCC[C@@H](N)C(=O)[O-])[C@H]2SC1.[Zn+2] [Cephalosporin C zinc salt] tested on SARS-CoV-2 3CLpro (Severe acute respiratory syndrome coronavirus 2).
Marked response: 0.2554

Exam item: Write mean of Cl.Fc1ccc(CN(C2=NCCN2)c2c(Cl)cccc2Cl)cc1 [IMID-4F hydrochloride] ; system used: SARS-CoV-2 3CLpro (Severe acute respiratory syndrome coronavirus 2)
Marked response: -0.6347

Exam item: Tell me its mean on SARS-CoV-2 3CLpro (Severe acute respiratory syndrome coronavirus 2): CC(=O)NNC(=O)N1Cc2ccccc2Oc2ccc(Cl)cc21 [SC 19220]
Marked response: 0.1868

Exam item: Send back SARS-CoV-2 3CLpro (Severe acute respiratory syndrome coronavirus 2) mean of C[C@H]1C[C@H]2[C@@H]3CCC4=CC(=O)C=C[C@]4(C)[C@@]3(Cl)[C@@H](O)C[C@]2(C)[C@@]1(O)C(=O)CO [Beclomethasone] only.
Marked response: -0.1197

Exam item: Answer briefly: mean recorded on SARS-CoV-2 3CLpro (Severe acute respiratory syndrome coronavirus 2) for COC(=O)c1c(C)[nH]c(C)c1C(=O)c1ccccc1Cc1ccccc1 [FPL 64176]
Marked response: 0.1984

Exam item: Determine reported mean for CC(C)(C)NC[C@H](O)COc1nsnc1N1CCOCC1.O=C(O)/C=C\C(=O)O [S(-)-Timolol maleate] ; test system: SARS-CoV-2 3CLpro (Severe acute respiratory syndrome coronavirus 2).
Marked response: 0.01613

Exam item: Write mean of Clc1ccc(C(c2ccccc2Cl)C(Cl)Cl)cc1 (centres unmarked) ; system used: SARS-CoV-2 3CLpro (Severe acute respiratory syndrome coronavirus 2)
Marked response: -0.2273

Exam item: Jot down mean (SARS-CoV-2 3CLpro (Severe acute respiratory syndrome coronavirus 2)) of CC(C)CC(NC(=O)C1OC1C(=O)O)C(=O)NCCCCNC(=N)N (centres unmarked) [E-64] .
Marked response: 0.2813

###

- TARGET_UNDER_TEST: SARS-CoV-2 3CLpro (Severe acute respiratory syndrome coronavirus 2, UniProt P0DTD1)
- EXPERIMENT_NOTES: biochemical
- Assay type: biochemical
Use 2 as the dividing line for Replicate_1 (LOPAC_screen_w_protease), with the line itself on the yes side and lower values as no.

{"columns": ["COMPOUND", "LABEL"],
 "data": [
  ["CN1CCCC1c1cccnc1.Cc1ccc(C(=O)OC(C(=O)O)C(OC(=O)c2ccc(C)cc2)C(=O)O)cc1 (stereo not drawn) [(+)-Nicotine (+)-di-p-toluoyl tartrate]", "no"],
  ["C[C@H](Cc1ccc2c(c1)OC(C(=O)[O-])(C(=O)[O-])O2)NC[C@H](O)c1cccc(Cl)c1.[Na+].[Na+]", "no"]
]}

Exam item: Quick check, Replicate_1 (LOPAC_screen_w_protease) >= 2? CN1C2CCC1CC(OC(c1ccccc1)c1ccc(Cl)cc1)C2.Cl (stereo not shown)
Marked response: yes

Exam item: Please check the record O=C(O)CCCCCCC1C(=O)NC(=O)N1CCC(O)C1CCCCC1 (stereo not shown) [BW 245C] and state if its Replicate_1 (LOPAC_screen_w_protease) is at or above 2.
Marked response: yes

Exam item: Kindly determine if Replicate_1 (LOPAC_screen_w_protease) recorded for Br.COc1ccc(-c2ccc(=N)n(CCCC(=O)O)n2)cc1 is above or exactly 2.
Marked response: yes

Exam item: Please indicate if the recorded Replicate_1 (LOPAC_screen_w_protease) for C#CCN[C@H](C)Cc1ccccc1.Cl [R-(-)-Desmethyldeprenyl hydrochloride] meets or exceeds 2.
Marked response: yes

###

- TARGET_UNDER_TEST: SARS-CoV-2 3CLpro (Severe acute respiratory syndrome coronavirus 2)
- EXPERIMENT_NOTES: biochemical
- Type: biochemical
- CONDITION_LABEL: 4 h, sheet LOPAC_screen_w_protease; LOPAC1280 primary screen with protease, 5 µM compound; mean of the two replicates; read-out: mean
Structures can show the parent of a compound that is named as a salt.
METRIC: inhibition at 5 µM (%)
# number only, unit % dropped from output

{"columns": ["COMPOUND", "TARGET_UNDER_TEST", "inhibition at 5 µM / %"],
 "data": [
  ["COc1cc(NS(C)(=O)=O)ccc1Nc1c2ccccc2nc2ccccc12 [Amsacrine hydrochloride]", "SARS-CoV-2 3CLpro (Severe acute respiratory syndrome coronavirus 2)", 4.23]
]}

Exam item: Retrieve inhibition at 5 µM measured for CC(=O)OCC1=C(C(=O)O)N2C(=O)[C@@H](NC(=O)Cc3cccs3)[C@H]2SC1 [Cephalothin sodium] and print it.
Marked response: 5.22

Exam item: Give a short answer stating reported inhibition at 5 µM for O=C1N(c2ccccc2)c2ccccc2C1(Cc1ccncc1)Cc1ccncc1 [Linopirdine] .
Marked response: 4.8

Exam item: Name the recorded inhibition at 5 µM of the compound listed here: C[C@H]1c2cccc(O)c2C(=O)C2=C(O)[C@]3(O)C(=O)C(C(N)=O)=C(O)[C@@H](N(C)C)[C@@H]3[C@@H](O)[C@@H]21 [Doxycycline hydrochloride]
Marked response: 4.21

###

- TARGET_UNDER_TEST: SARS-CoV-2 3CLpro (Severe acute respiratory syndrome coronavirus 2)
- EXPERIMENT_NOTES: biochemical
- Type: biochemical
- Set-up: unit not given here
- CONDITION_LABEL: LOPAC1280 primary screen with protease, 5 µM compound, mean of two replicates
METRIC: mean (LOPAC_screen_w_protease)
Lab note: jot the number down without any unit.

Exam item: Give mean (LOPAC_screen_w_protease) only, for C=CCn1c(=O)c2c(nc(-c3ccc(S(=O)(=O)O)cc3)n2C)n(C)c1=O , using SARS-CoV-2 3CLpro (Severe acute respiratory syndrome coronavirus 2) data.
Marked response: 1.718

Exam item: Consider the compound Cc1nc2c([nH]1)c(=O)n(C)c(=O)n2Cc1ccco1 [Furafylline] tested on SARS-CoV-2 3CLpro (Severe acute respiratory syndrome coronavirus 2); state its mean (LOPAC_screen_w_protease).
Marked response: 1.344

Exam item: Enter mean (LOPAC_screen_w_protease) (test system SARS-CoV-2 3CLpro (Severe acute respiratory syndrome coronavirus 2)) for O=C(O)[C@@H]1C[C@H](C(=O)O)N1 [cis-Azetidine-2,4-dicarboxylic acid]
Marked response: 1.501

Exam item: Enter mean (LOPAC_screen_w_protease) (test system SARS-CoV-2 3CLpro (Severe acute respiratory syndrome coronavirus 2)) for NC(CO)(CO)CO.O=C(c1ccccc1)c1ccc2n1CCC2C(=O)O (centres unmarked) [Ketorolac tris salt]
Marked response: 1.7087

Exam item: State recorded mean (LOPAC_screen_w_protease) with SARS-CoV-2 3CLpro (Severe acute respiratory syndrome coronavirus 2), entry CN1CCN(CC/C=C2/c3ccccc3Sc3ccc(S(=O)(=O)N(C)C)cc32)CC1.Cl [Thiothixene hydrochloride] , no comment.
Marked response: 1.56

Exam item: Recall the reported mean (LOPAC_screen_w_protease) of CCCCCCCCCCCCCCCCCCNC(=O)OCC(COP(=O)([O-])OCC[n+]1ccsc1)OC (centres unmarked) [CV-3988] on SARS-CoV-2 3CLpro (Severe acute respiratory syndrome coronavirus 2) and write it down.
Marked response: 1.326

Exam item: Consider the compound CO[C@@]1(NC(=O)CSCC#N)C(=O)N2C(C(=O)O)=C(CSc3nnnn3C)CS[C@@H]21 [Cefmetazole sodium] tested on SARS-CoV-2 3CLpro (Severe acute respiratory syndrome coronavirus 2); state its mean (LOPAC_screen_w_protease).
Marked response: 1.702

Exam item: State mean (LOPAC_screen_w_protease) (SARS-CoV-2 3CLpro (Severe acute respiratory syndrome coronavirus 2)) of COc1cc2c(CCNC(C)=O)c[nH]c2cc1Cl [6-Chloromelatonin] .
Marked response: 1.65

The values you see were collected from paper PMC7587356.
